Tested on: A549
test: Antiproliferative activity against human A549 cells assessed as reduction in cell viability incubated for 48 hrs by CCk-8 assay
Type: functional, cell-based
conditionInfo: A549, 48 h
Listed here: items and their measured pIC50.
Interpret pIC50 as the negative base-10 log of the concentration measured in mol/L.

input: # lookup: pIC50 of C[C@H]1CCC/C=C/[C@@H]2C[C@H](O)C[C@H]2[C@H](OC(=O)CCCC(=O)OCCCCOc2ccc(-c3cc(=S)ss3)cc2)/C=C/C(=O)O1
output: 5.98

input: Same for C[C@H]1CCC/C=C/[C@@H]2C[C@H](O)C[C@H]2[C@H](OC(=O)CCCC(=O)Oc2ccc(-c3cc(=S)ss3)cc2)/C=C/C(=O)O1
output: 4.74

---

Tested on: HeLa
test: Antiproliferative activity against human HeLa cells assessed as reduction in cell viability incubated for 48 hrs by CCk-8 assay
Assay type: functional, cell-based
Listed here: items and their measured log10 of IC50.
The common logarithm of IC50 in µM is what is listed.

C[C@H]1CCC/C=C/[C@@H]2C[C@H](OC(=O)CCC(=O)OCCOc3ccc(-c4cc(=S)ss4)cc3)C[C@H]2[C@H](OC(=O)CCC(=O)OCCOc2ccc(-c3cc(=S)ss3)cc2)/C=C/C(=O)O1
0.75
C[C@H]1CCC/C=C/[C@@H]2C[C@H](O)C[C@H]2[C@H](OC(=O)CCC(=O)OCCOc2ccc(-c3cc(=S)ss3)cc2)/C=C/C(=O)O1
0.54
C[C@H]1CCC/C=C/[C@@H]2C[C@H](O)C[C@H]2[C@H](OC(=O)CCC(=O)Oc2ccc(-c3cc(=S)ss3)cc2)/C=C/C(=O)O1
0.37
C[C@H]1CCC/C=C/[C@@H]2C[C@H](O)C[C@H]2[C@H](OC(=O)CCCC(=O)Oc2ccc(-c3cc(=S)ss3)cc2)/C=C/C(=O)O1
0.72
C[C@H]1CCC/C=C/[C@@H]2C[C@H](O)C[C@H]2[C@H](OC(=O)CCCC(=O)OCCCCCCOc2ccc(-c3cc(=S)ss3)cc2)/C=C/C(=O)O1
-0.43

Now for a further molecule.
input: Form field: log10 of IC50 recorded for C[C@H]1CCC/C=C/[C@@H]2C[C@H](O)C[C@H]2[C@H](OC(=O)c2ccccc2C(=O)Oc2ccc(-c3cc(=S)ss3)cc2)/C=C/C(=O)O1 with HeLa (enter value)
output: -0.52

---

Test system: DU-145
test: Antiproliferative activity against human DU-145 cells assessed as reduction in cell viability incubated for 48 hrs by CCk-8 assay
Type: functional, cell-based
conditionInfo: DU-145, 48 h
experimentalEndpoint: IC50 (µM)
I only need the number, in µM, no unit after it.

C[C@H]1CCC/C=C/[C@@H]2C[C@H](O)C[C@H]2[C@H](OC(=O)CCCC(=O)Oc2ccc(-c3cc(=S)ss3)cc2)/C=C/C(=O)O1
19.5
C[C@H]1CCC/C=C/[C@@H]2C[C@H](O)C[C@H]2[C@H](OC(=O)CCCC(=O)OCCCCOc2ccc(-c3cc(=S)ss3)cc2)/C=C/C(=O)O1
0.43
C[C@H]1CCC/C=C/[C@@H]2C[C@H](O)C[C@H]2[C@H](O)/C=C/C(=O)O1
0.16
Oc1ccc(-c2cc(=S)ss2)cc1
12.7

Now for a further compound.
input: # lookup: IC50 of C[C@H]1CCC/C=C/[C@@H]2C[C@H](O)C[C@H]2[C@H](OC(=O)CCC(=O)OCCCCOc2ccc(-c3cc(=S)ss3)cc2)/C=C/C(=O)O1
output: 0.87

---

Test system: HeLa
test: Antiproliferative activity against human HeLa cells assessed as reduction in cell viability incubated for 48 hrs by CCk-8 assay
Format: functional, cell-based
Listed here: items and their measured pIC50.
Interpret pIC50 as the negative base-10 log of the concentration measured in mol/L.

C[C@H]1CCC/C=C/[C@@H]2C[C@H](O)C[C@H]2[C@H](O)/C=C/C(=O)O1
7.36
CC(=O)O[C@H]1C(=O)[C@@]2(C)[C@H]([C@H](OC(=O)c3ccccc3)[C@]3(O)C[C@H](OC(=O)[C@H](O)[C@@H](NC(=O)c4ccccc4)c4ccccc4)C(C)=C1C3(C)C)[C@]1(OC(C)=O)CO[C@@H]1C[C@@H]2O
7.47
C[C@H]1CCC/C=C/[C@@H]2C[C@H](O)C[C@H]2[C@H](OC(=O)CCCC(=O)OCCCCOc2ccc(-c3cc(=S)ss3)cc2)/C=C/C(=O)O1
6.64
Oc1ccc(-c2cc(=S)ss2)cc1
5.19

input: # lookup: pIC50 of C[C@H]1CCC/C=C/[C@@H]2C[C@H](O)C[C@H]2[C@H](OC(=O)CCC(=O)OCCCCCCOc2ccc(-c3cc(=S)ss3)cc2)/C=C/C(=O)O1
output: 6.11

---

System: DU-145
test: Antiproliferative activity against human DU-145 cells assessed as reduction in cell viability incubated for 48 hrs by CCk-8 assay
Format: functional, cell-based
conditionInfo: DU-145, 48 h
experimentalEndpoint: IC50 (nM)
I only need the number, in nM, no unit after it.

C[C@H]1CCC/C=C/[C@@H]2C[C@H](O)C[C@H]2[C@H](OC(=O)CCC(=O)OCCOc2ccc(-c3cc(=S)ss3)cc2)/C=C/C(=O)O1
1850

Now for a further molecule.
input: # lookup: IC50 of C[C@H]1CCC/C=C/[C@@H]2C[C@H](O)C[C@H]2[C@H](OC(=O)CCCC(=O)OCCCCCCOc2ccc(-c3cc(=S)ss3)cc2)/C=C/C(=O)O1
output: 1110

---

Test system: DU-145
test: Antiproliferative activity against human DU-145 cells assessed as reduction in cell viability incubated for 48 hrs by CCk-8 assay
Format: functional, cell-based
conditionInfo: DU-145, 48 h
experimentalEndpoint: IC50

Below: 4 compounds and their reported IC50.
C[C@H]1CCC/C=C/[C@@H]2C[C@H](OC(=O)c3ccccc3C(=O)OCCCCCCOc3ccc(-c4cc(=S)ss4)cc3)C[C@H]2[C@H](OC(=O)c2ccccc2C(=O)OCCCCCCOc2ccc(-c3cc(=S)ss3)cc2)/C=C/C(=O)O1
> 40 µM
C[C@H]1CCC/C=C/[C@@H]2C[C@H](OC(=O)CCCC(=O)OCCCCOc3ccc(-c4cc(=S)ss4)cc3)C[C@H]2[C@H](OC(=O)CCCC(=O)OCCCCOc2ccc(-c3cc(=S)ss3)cc2)/C=C/C(=O)O1
> 40 µM
C[C@H]1CCC/C=C/[C@@H]2C[C@H](O)C[C@H]2[C@H](OC(=O)c2ccccc2C(=O)OCCCCCCOc2ccc(-c3cc(=S)ss3)cc2)/C=C/C(=O)O1
> 40 µM
C[C@H]1CCC/C=C/[C@@H]2C[C@H](O)C[C@H]2[C@H](OC(=O)CCC(=O)Oc2ccc(-c3cc(=S)ss3)cc2)/C=C/C(=O)O1
16.1 µM

input: Form field: IC50 recorded for C[C@H]1CCC/C=C/[C@@H]2C[C@H](OC(=O)CCC(=O)OCCOc3ccc(-c4cc(=S)ss4)cc3)C[C@H]2[C@H](O)/C=C/C(=O)O1 with DU-145 (enter value)
output: > 40 µM

---

System: MDA-MB-231
test: Antiproliferative activity against human MDA-MB-231 cells assessed as reduction in cell viability incubated for 48 hrs by CCk-8 assay
Format: functional, cell-based
conditionInfo: MDA-MB-231, 48 h
Listed here: items and their measured pIC50.
Interpret pIC50 as the negative base-10 log of the concentration measured in mol/L.

Below: 6 compounds and their reported pIC50.
CC(=O)O[C@H]1C(=O)[C@@]2(C)[C@H]([C@H](OC(=O)c3ccccc3)[C@]3(O)C[C@H](OC(=O)[C@H](O)[C@@H](NC(=O)c4ccccc4)c4ccccc4)C(C)=C1C3(C)C)[C@]1(OC(C)=O)CO[C@@H]1C[C@@H]2O
6.48
C[C@H]1CCC/C=C/[C@@H]2C[C@H](O)C[C@H]2[C@H](OC(=O)CCCC(=O)OCCCCOc2ccc(-c3cc(=S)ss3)cc2)/C=C/C(=O)O1
6.80
C[C@H]1CCC/C=C/[C@@H]2C[C@H](O)C[C@H]2[C@H](OC(=O)CCC(=O)Oc2ccc(-c3cc(=S)ss3)cc2)/C=C/C(=O)O1
5.87
C[C@H]1CCC/C=C/[C@@H]2C[C@H](O)C[C@H]2[C@H](OC(=O)CCC(=O)OCCCCCCOc2ccc(-c3cc(=S)ss3)cc2)/C=C/C(=O)O1
5.85
Oc1ccc(-c2cc(=S)ss2)cc1
4.48
C[C@H]1CCC/C=C/[C@@H]2C[C@H](O)C[C@H]2[C@H](OC(=O)CCCC(=O)OCCOc2ccc(-c3cc(=S)ss3)cc2)/C=C/C(=O)O1
6.48

input: # lookup: pIC50 of C[C@H]1CCC/C=C/[C@@H]2C[C@H](O)C[C@H]2[C@H](OC(=O)c2ccccc2C(=O)Oc2ccc(-c3cc(=S)ss3)cc2)/C=C/C(=O)O1
output: 5.87

input: Same for C[C@H]1CCC/C=C/[C@@H]2C[C@H](O)C[C@H]2[C@H](O)/C=C/C(=O)O1
output: 7.27

input: Same for C[C@H]1CCC/C=C/[C@@H]2C[C@H](O)C[C@H]2[C@H](OC(=O)CCCC(=O)Oc2ccc(-c3cc(=S)ss3)cc2)/C=C/C(=O)O1
output: 5.02

input: Same for C[C@H]1CCC/C=C/[C@@H]2C[C@H](O)C[C@H]2[C@H](OC(=O)CCCC(=O)OCCCCCCOc2ccc(-c3cc(=S)ss3)cc2)/C=C/C(=O)O1
output: 6.29
